System: soybean (Glycine max)
method.description: Test C postemergence
Assay type: in vivo
experimental.setup: 16 g ai/ha, scale 0 to 100, 0 is no effect, 100 is complete control
Exercise: for every item that follows, state its recorded Plant response rating, Soybean.
Answer with the value's number alone.

Report Plant response rating, Soybean for O=c1cccc(Oc2ncc(Cl)cn2)n1-c1ccc(C(F)(F)F)cc1 please.
40

// query: O=c1cccc(Oc2ncc(Cl)cn2)n1-c1ccc(Cl)cc1
15

// query: O=c1cccc(Oc2ncc(Cl)cn2)n1-c1ccc(C(F)(F)F)cn1
50

// query: O=c1cccc(Oc2ncc(Cl)cn2)n1-c1ncc(Cl)cn1
40

---

Tested on: corn (Zea mays)
method.description: Test A postemergence application
Assay type: in vivo
experimental.setup: 125 g ai/ha, approx. 10 days
experimental.readout: Plant response rating (0 to 100 scale, 0 no effect, 100 complete control), Corn
Answer with the value's number alone.

Report Plant response rating (0 to 100 scale, 0 no effect, 100 complete control), Corn for O=c1cccc(Oc2ncc(Cl)cn2)n1-c1ccc(C(F)(F)F)cc1 please.
30

// query: O=c1cccc(Oc2ncc(Cl)cn2)n1-c1cccc(C(F)(F)F)c1
0

// query: O=c1cccc(Oc2ncc(Cl)cn2)n1-c1ccc(F)cn1
10

// query: O=c1cccc(Oc2ncc(Cl)cn2)n1-c1ccc(Cl)cc1
30

// query: O=c1cccc(Oc2ncc(Cl)cn2)n1-c1ncc(F)cn1
10

// query: O=c1cccc(Oc2ncc(Cl)cn2)n1-c1ncc(C(F)(F)F)cn1
10

// query: O=c1cccc(Oc2ncc(Cl)cn2)n1-c1ncc(Cl)cn1
20

// query: O=c1cccc(Oc2ncc(Cl)cn2)n1-c1ccc(Cl)cn1
20

// query: O=c1cccc(Oc2ncc(Cl)cn2)n1-c1ccc(C(F)(F)F)cn1
20

---

Tested on: johnsongrass (Sorghum halepense)
method.description: Test C postemergence
Assay type: in vivo
experimental.setup: 125 g ai/ha, scale 0 to 100, 0 is no effect, 100 is complete control
Exercise: for every item that follows, state its recorded Plant response rating, Johnsongrass.
Answer with the value's number alone.

Report Plant response rating, Johnsongrass for O=c1cccc(Oc2ncc(Cl)cn2)n1-c1ccc(C(F)(F)F)cn1 [Compound 7] please.
10

// query: O=c1cccc(Oc2ncc(Cl)cn2)n1-c1ncc(Cl)cn1 [Compound 6]
5

// query: O=c1cccc(Oc2ncc(Cl)cn2)n1-c1ccc(C(F)(F)F)cc1 [Compound 10]
25

// query: O=c1cccc(Oc2ncc(Cl)cn2)n1-c1ccc(Cl)cc1 [Compound 1]
5

---

Test system: ragweed (common ragweed, Ambrosia elatior)
method.description: Test C preemergence
Format: in vivo
experimental.setup: 125 g ai/ha, scale 0 to 100, 0 is no effect, 100 is complete control
Text: […]
experimental.readout: Plant response rating, Ragweed
Answer with the value's number alone.

Report Plant response rating, Ragweed for O=c1cccc(Oc2ncc(Cl)cn2)n1-c1ccc(C(F)(F)F)cc1 [Compound 10] please.
65

// query: O=c1cccc(Oc2ncc(Cl)cn2)n1-c1ccc(Cl)cc1 [Compound 1]
0

// query: O=c1cccc(Oc2ncc(Cl)cn2)n1-c1ncc(Cl)cn1 [Compound 6]
85

// query: O=c1cccc(Oc2ncc(Cl)cn2)n1-c1ccc(C(F)(F)F)cn1 [Compound 7]
40
